Examples of compounds with documented growth follow.
Tested on: SNB-19 CNS
Assay: NCI-60 one-dose screen, 48 h (100 = growth as untreated, 0 = no growth, -100 = all killed)
Settings: 10 µM
Compounds without any hit were thinned out: in the full panel of roughly 83,000, 20% have a hit. Active and inactive are the calls of the source. Rule for the calls: active = growth percent below 10; inactive = the rest.

line.notation	growth
CC1(C)CC[C@]2(C(=O)NCCCNCCCCNCCCN)CC[C@]3(C)C(=CC[C@@H]4[C@@]5(C)Cc6c([nH]c7ccccc67)C(C)(C)[C@@H]5CC[C@]43C)[C@H]2C1	57.9% (inactive)
N#Cc1c(NC(=O)c2ccc(C(F)(F)F)cc2)sc2c1CCC(O)=C2	55.9% (inactive)
CN1CCc2c(sc3ncnc(N/N=C/c4cn(-c5ccccc5)nc4-c4ccc(Cl)cc4)c23)C1	34.3% (inactive)

====

System: SK-OV-3 ovarian
Assay: NCI-60 one-dose screen, 48 h (100 = growth as untreated, 0 = no growth, -100 = all killed)
Conditions: 10 µM
About 83,000 compounds went through this panel and 20% of them were active in at least one assay; those are over-represented in the sample as a whole.
measurement.name: growth (%)

line.notation	measurement.name	obs.value
O=C1N/C(=N\c2nccs2)S/C1=C\c1cccs1	growth	39.3
CC(C)c1ccc(C(=O)Nc2sc3c(c2C(N)=O)CCC(=O)C3=O)cc1	growth	89.4
N#Cc1c(NC(=O)c2cccc(C(F)(F)F)c2)sc2c1CCC(O)=C2	growth	40.3

====

Listing of recorded growth by entry.
Tested on: SK-MEL-28 melanoma
Assay: NCI-60 one-dose screen, 48 h (100 = growth as untreated, 0 = no growth, -100 = all killed)
Conditions: 10 µM
The panel holds about 83,000 compounds, 20% with a hit somewhere; the sample as a whole holds those more often. Active and inactive are the calls of the source. Rule for the calls: active = growth percent below 10; inactive = the rest.
measurement.name: growth

compound	obs.value
O=c1cc(-c2ccccc2)oc2cc(OCCCNCc3ccccc3)cc(O)c12	-88.8% (active)
Cc1ccn2c(C(=O)c3ccccc3)cc(-c3cc(-c4ccc(N(C)C)cc4)c(C#N)c(N)n3)c2c1	74.3% (inactive)
Cc1nn(-c2ccccc2)c2ncn(CC(=O)N/N=C/c3c[nH]c4ccccc34)c(=O)c12	114% (inactive)
COc1ccc(-c2nc(Nc3ccccc3S(N)(=O)=O)c3ccccc3n2)cc1	76.7% (inactive)
NS(=O)(=O)c1ccc(NC(=O)CSc2ccc(-c3ccccc3)nn2)c(Br)c1	94.7% (inactive)
CNC(=O)c1cccc(N2CCc3c2ccc(NC(=O)Nc2ccc(N4CCN(C)CC4)c(C(F)(F)F)c2)c3F)c1	-93.5% (active)
O=C(NC(=S)N1CCN(c2ncnc3c2cnn3-c2ccccc2)CC1)c1ccc(Cl)cc1	82.5% (inactive)
O=C(c1ccc(O)cc1)C1[C@H](c2ccccc2Br)[C@@H](c2ccccc2)NC12C(=O)Nc1ccc(Br)cc12 (some centres not stated)	77.7% (inactive)
CC(C)NC(=O)c1cc(-c2ccc(NC(=O)Nc3ccc(N4CCN(C)CC4)c(C(F)(F)F)c3)cc2)nc2cccnc12	-99.3% (active)
O=C1Nc2cc(Cl)ccc2/C1=C/c1cccc(OCc2ccc(Br)cc2F)c1	36.4% (inactive)
CN1C/C(=C\c2ccc(O)cc2O)c2[o+]c3cc(O)ccc3cc2C1	17.3% (inactive)
CC(=O)Nc1nc(-c2ccc(N3CCN(C)CC3)c(NS(=O)(=O)c3ccc(C(F)(F)F)cc3)c2)cs1	5.39% (active)

====

System: LOX IMVI melanoma
Test: NCI-60 one-dose screen, 48 h (100 = growth as untreated, 0 = no growth, -100 = all killed)
Details: 10 µM
The panel holds about 83,000 compounds, 20% with a hit somewhere; the sample as a whole holds those more often.

compound	growth / %
O=C(N/C(=C1/OCCN1Cc1ccccc1)[P+](c1ccccc1)(c1ccccc1)c1ccccc1)c1ccccc1	6.07
O=C(NO)c1ccc(CN2CCN(c3nc(-c4ccccc4)c4ccccc4n3)CC2)cc1	-60.6
O=C(CSc1nnc(-c2c[nH]c3ccccc23)n1-c1ccccc1)Nc1ccc(C(=O)/C=C/c2cccc([N+](=O)[O-])c2)cc1	75.6
COc1ccc(C(=O)NC(=S)N2CCN(c3ncnc4c3cnn4-c3ccccc3)CC2)cc1	62.3
Cc1ccc(NC(=O)NCn2c(=O)[nH]c3ccccc3c2=O)cc1	83.7
O=C1c2ccccc2C(=O)c2c1c(C(=O)c1ccc(Cl)cc1)n1c2ccc2c3ccccc3ccc21	90.2
Cc1noc2c(Cc3ccccc3)nn(CC(=O)N/N=C/c3ccc(Cl)cc3)c(=O)c12	48.7
Cc1noc2c(Cc3ccccc3)nn(CC(=O)N/N=C/c3ccc(Br)cc3)c(=O)c12	45.9
CC1=C(c2cc(-c3ccc(Cl)cc3)c(C#N)c(N)n2)C(c2ccccc2)NC(=S)N1 (stereo not given)	-49.2
Cc1cc(C)nc(SCC(=O)Nc2ccc(S(N)(=O)=O)cc2)n1	96.7
COc1ccc(-c2ccc(/C=N/NC(=O)c3[nH]c4ccc(Br)cc4c3-c3ccccc3)s2)cc1	75.5
COc1ccc(C(=O)/C=C/c2ccc(Cl)c(C(F)(F)F)c2)cc1S(N)(=O)=O	-91.4
COc1cc(/C=N/NC(=O)c2ccc3nc(-c4ccc(Cl)cc4)[nH]c3c2)cc(OC)c1OC	-81.1
CN1CCCN(Cc2ccc(C(=O)Nc3cccc(Nc4ccc5cc(O)ccc5n4)c3)cc2C(F)(F)F)CC1	-100
CC(=O)c1ccc(Nc2nc(SC(C)C)nc(-c3ccccc3)c2C#N)cc1	0.768
NC1=NC(c2ccccc2Cl)N=C(Nc2nn[nH]n2)N1 (stereo not given)	94.2
CCCCCc1ccc(S(=O)(=O)Nc2cc(-c3csc(N(C)C(C)=O)n3)ccc2N2CCN(C)CC2)cc1	-71.1
O=C(NC(=S)N1CCN(c2ncnc3c2cnn3-c2ccccc2)CC1)c1ccc(Cl)cc1	14.3
COc1ccc(C(=O)Nc2sc3c(c2C#N)CCC(=O)C3)cc1C(F)(F)F	-15
O=S(=O)(c1ccc(Cl)cc1)c1nc(-c2ccccc2)oc1S(=O)(=O)c1ccc(Cl)cc1	19.7
Nc1nc(-c2ccccc2)cc(-c2cc3ccccc3nc2Cl)n1	45
Cc1cccc2cc(-c3cc(-c4ccccc4)nc(=O)[nH]3)c(Cl)nc12	54.1
Cc1ccc(C(=O)CSc2nnc(-c3c[nH]c4ccccc34)n2-c2ccccc2)cc1	-19.5
CC[C@@]1(O)C(=O)OCc2c1cc1n(c2=O)Cc2c-1nc1cc(F)c(C)c3c1c2[C@@H](N)CC3	-74.2
CCCn1c(=O)c2[nH]c(-c3ccc(OCc4nc5ccc(C(F)(F)F)cc5[nH]4)cc3)nc2n(CCC)c1=O	35.5

====

Test system: UO-31 renal
Assay: NCI-60 one-dose screen, 48 h (100 = growth as untreated, 0 = no growth, -100 = all killed)
Settings: 10 µM
The panel holds about 83,000 compounds, 20% with a hit somewhere; the sample as a whole holds those more often.
Rule for this label: TRUE means growth is less than 50%; FALSE means growth is at least 50%.

compound	assigned.class
CN1C(=O)N(C)C2SC(N/N=C/c3ccc(F)cc3)=NC21 (stereo unspecified)	TRUE
CC(=O)Nc1ccc(-c2cn(-c3cccc(C(=O)Nc4cccc(OC(F)(F)F)c4)c3)nn2)cn1	FALSE
CN1C(=O)N(C)C2SC(N/N=C/c3ccccc3)=NC21 (stereo unspecified)	FALSE
CC(=O)OC[C@@]1(C)C2CC[C@]3(C)C(CC=C4C5CC(C)(C)CC[C@]5(C(=O)Nc5ccccc5)CC[C@]43C)[C@@]2(C)C[C@@H](OC(C)=O)[C@@H]1OC(C)=O (stereo partly specified)	TRUE
CN1CCN(Cc2ccc(C(=O)Nc3cccc(Nc4ccc5cc(O)ccc5n4)c3)cc2C(F)(F)F)CC1	TRUE
O=c1[nH]c2ccc(Cl)cc2cc1CSc1ccc(Nc2nccc(-c3ccc4ccccc4c3)n2)cc1	FALSE
O=C(Nc1ccc(OCc2ccccc2)cc1)Nc1ccc(Cl)c(C(F)(F)F)c1	TRUE
COc1cccc(C(N)=Nc2ccc(OCCCCCCn3cncn3)cc2)c1	TRUE
CC(C)NC(=O)c1cc(-c2ccc(NC(=O)Nc3ccc(N4CCN(C)CC4)c(C(F)(F)F)c3)cc2)nc2cccnc12	TRUE
COc1ccc(-c2c(N)c(=O)n(C)c3ccccc23)cc1	TRUE
CC(C)(C)Nc1nc2cc(Cl)c(Cl)cc2nc1S(C)(=O)=O	FALSE
O=c1c2ccccc2nc(COc2ccccc2)n1/N=C/c1ccc(N2CCCC2)cc1	FALSE
COC1=C[C@@]23CCC(=O)N2CCc2cc4c(cc2[C@H]3[C@H]1OC(=O)C(C)(C)O)OCO4	FALSE
Cc1ccc(-c2nc(Nc3ccc(S(N)(=O)=O)cc3)c3ccccc3n2)cc1	FALSE
O=C(CNc1nc(-c2ccccc2)cs1)Nc1ccc(Cl)cc1	TRUE
N#Cc1ccc(-c2nn(-c3ccc(C(=O)O)cc3)cc2CNc2ccc(Oc3ccccc3)cc2)cc1	FALSE
